tested on: DU-145 prostate; experiment: NCI-60 one-dose screen, 48 h; conditions: 10 µM unless noted
The panel holds about 83,000 compounds, 20% with a hit somewhere; the sample as a whole holds those more often. The source made the active and inactive calls. Rule for the calls: active = growth percent below 10; inactive = the rest.
Labels: TRUE = active, FALSE = inactive

{"molecule": "O=C(CCl)N(C1CCCCC1)C1CCCCC1", "category": "FALSE"}
{"molecule": "CC(C)(C)n1cc(-c2ccnc(NCCNS(=O)(=O)c3ccc(F)cc3)c2)c(-c2cccc(O)c2)n1", "category": "FALSE"}
{"molecule": "COc1ccc(NC(=O)CSc2nc(-c3ccc(OC)c(OC)c3)cc(-c3cc(OC)c(OC)c(OC)c3)n2)cc1", "category": "FALSE"}
{"molecule": "COc1cc2c(cc1OCCCCCn1c3ccccc3c3ccccc31)N=C[C@@H]1CCCN1C2=O", "category": "TRUE"}
{"molecule": "O=C(/C=C\\c1cccc([N+](=O)[O-])c1)/C=C/c1cccc([N+](=O)[O-])c1", "category": "FALSE"}
{"molecule": "CC(=O)Oc1csc(N(C(C)=O)c2cc(C(=O)O)cc(C(=O)O)c2)n1", "category": "FALSE"}
{"molecule": "CN1C(=O)N(C)C2C1NN=c1s/c(=C\\C=C\\c3ccccc3)c(=O)n12 (configuration not stated)", "category": "FALSE"}
{"molecule": "COc1ccc(S(=O)(=O)n2ccc(-c3ccc4c(c3)CCC(C)(C)O4)n2)cc1OC", "category": "FALSE"}
{"molecule": "CCN(CC)CCC(CNc1ccnc2cc(Cl)ccc12)c1ccc(Cl)cc1 (configuration not stated)", "category": "FALSE"}
{"molecule": "Cc1ccc2nc(Cl)cc(=O)n2c1", "category": "FALSE"}
{"molecule": "COc1cc(C(=O)/C=C/c2ccc3nc(-c4cc(F)cc(F)c4)sc3c2)cc(OC)c1OC", "category": "FALSE"}
{"molecule": "N=C(N)c1ccc(-c2cc(Cl)cc(Cl)c2)cn1", "category": "FALSE"}
{"molecule": "COc1cc(C2C3=C(COC3=O)Nc3cc4c(cc32)CCC4)cc2c1OCO2 (configuration not stated)", "category": "TRUE"}
{"molecule": "CC(C)C(C(=O)NCCN1CCOCC1)N1C(=O)/C(=C/c2ccc(Br)cc2)SC1=S (configuration not stated)", "category": "FALSE"}
{"molecule": "COc1c2occc2c(OC)c2c(=O)c(-c3cc(-c4ccc(F)cc4)c(C#N)c(N)n3)c(C)oc12", "category": "FALSE"}
{"molecule": "OC(c1cc2cc(Br)ccc2c2cc(Br)ccc12)C1CCCCN1 (configuration not stated)", "category": "TRUE"}
{"molecule": "O=[N+]([O-])c1ccc(C(c2ccccc2)c2ccccc2)cc1", "category": "FALSE"}
{"molecule": "COc1cccc(/C=C2\\Oc3cc(OCCCN4CCCC4)ccc3C2=O)c1OC", "category": "FALSE"}
{"molecule": "CCOC(=O)c1c(/N=C2\\SC(=O)/C(=C\\C(=O)OC)N2NC)sc2c1CCN(C(=O)OCC)C2", "category": "FALSE"}
{"molecule": "Cc1cc(N/N=C/c2nc(-c3ccc(Br)cc3)oc2C)c2cc(Br)ccc2n1", "category": "FALSE"}
{"molecule": "COc1ccc(CCNC2=CC(=O)CCC2)cc1OC", "category": "FALSE"}
{"molecule": "COc1ccc(-c2nc(SCCC(C)C)nc(Nc3ccc(F)c(Cl)c3)c2C#N)cc1", "category": "FALSE"}
{"molecule": "CN(C[C@H]1Cc2c(cccc2N2CCN(Cc3ccccn3)CC2)CN1)[C@H]1CCCc2cccnc21", "category": "FALSE"}
{"molecule": "O=C1c2c(Cl)c(Cl)c(Cl)c(Cl)c2C(=O)C2(Cl)CC=CCC12Cl (configuration not stated)", "category": "TRUE"}
{"molecule": "CC(O)CN1CCCCC1 (configuration not stated)", "category": "FALSE"}
{"molecule": "CC(C)(C)n1cc(-c2ccnc(NCCCNS(=O)(=O)c3ccc(F)cc3)c2)c(-c2cccc(O)c2)n1", "category": "FALSE"}
{"molecule": "COc1ccc2c(c1)[nH]c(=O)c1c3cc(C)c(C)cc3cn21", "category": "TRUE"}
{"molecule": "CCOc1cc2c(Cl)ncnc2c(OCC)c1OCC", "category": "TRUE"}
{"molecule": "O=C(NNC(=O)N1c2ccccc2C=Cc2ccccc21)c1ccccc1", "category": "FALSE"}
{"molecule": "Cc1ccc2nc(-c3cc4c([nH]c5ccccc54)c(-c4ccc(F)c(F)c4)n3)[nH]c2c1", "category": "FALSE"}
{"molecule": "CN(C[C@H]1Cc2c(cccc2N2CCN(c3ncccn3)CC2)CN1)[C@H]1CCCc2cccnc21", "category": "FALSE"}
{"molecule": "Cc1cccc(/C=N/Nc2cc(C)c3cccc(C)c3n2)n1", "category": "FALSE"}
{"molecule": "Cc1ccc(S(=O)(=O)n2cc(C(=O)C(=O)N3CCOCC3)c3ccccc32)cc1", "category": "FALSE"}
{"molecule": "COC(OC)c1ccccc1", "category": "FALSE"}
{"molecule": "COc1ccc(-c2cnoc2-c2ccc(OC)cc2O)cc1", "category": "FALSE"}
{"molecule": "COc1cc(-c2nn(-c3cccc(NC(=O)Nc4cc(C(F)(F)F)cc(C(F)(F)F)c4)c3)cc2-c2ccncc2)ccc1Cl", "category": "TRUE"}
{"molecule": "O=C(c1c[nH]c(=O)c(-c2ccccc2)c1)c1ccccc1O", "category": "FALSE"}
{"molecule": "C=C[C@@H]1C[C@H](O)Cc2cc(F)ccc2N1", "category": "FALSE"}
{"molecule": "O=S(=O)(NCCNc1nccc(-c2c(-c3ccc(F)cc3)nc3sccn23)n1)c1ccc(F)cc1", "category": "FALSE"}
{"molecule": "CCCCCCCCCCCCNC(=O)[C@H]1CSC(c2cc(Br)cs2)N1 (some centres not stated)", "category": "TRUE"}
{"molecule": "C=C[C@@H]1C[C@@H]2Cc3ccccc3N1O2", "category": "FALSE"}
{"molecule": "O=C(Nc1ccncc1)C(=O)c1cn(S(=O)(=O)c2ccc(Oc3ccccc3)cc2)c2ccccc12", "category": "FALSE"}
